Entry source: patent US20250171438A1

- assayed-target: human PAH with the R408W mutation (Homo sapiens, UniProt P00439, R408W)
- Construct: expressed in transfected cells
- Sequence (P00439 whole entry R408W): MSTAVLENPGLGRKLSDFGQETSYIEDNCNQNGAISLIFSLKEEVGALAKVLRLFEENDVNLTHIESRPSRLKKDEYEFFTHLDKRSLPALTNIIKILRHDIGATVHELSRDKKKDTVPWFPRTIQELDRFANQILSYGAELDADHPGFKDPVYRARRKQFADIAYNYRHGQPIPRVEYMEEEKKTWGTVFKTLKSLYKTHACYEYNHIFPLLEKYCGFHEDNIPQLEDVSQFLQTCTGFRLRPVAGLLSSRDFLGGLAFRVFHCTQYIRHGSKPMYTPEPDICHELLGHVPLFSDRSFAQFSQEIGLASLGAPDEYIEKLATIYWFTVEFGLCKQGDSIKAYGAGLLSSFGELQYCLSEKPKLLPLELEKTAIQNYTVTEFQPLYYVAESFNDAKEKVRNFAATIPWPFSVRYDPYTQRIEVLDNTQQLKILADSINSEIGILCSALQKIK
- assay-remarks: Cell Based Phenylalanine Flux Assay
- study-conditions: A375 cells expressing human R408W PAH; 24 hrs with compound; 13C-Tyrosine by LC-MS; average where tested multiple times; read-out: AC50
measurement-name: AC50

Suppose we examine the molecule Cc1nc(CCN2CC(F)C2)oc1C(=O)N1CCc2[nH]cnc2C1c1nc2ccccc2s1 (centres unmarked) ; what AC50 value has been reported? 1 to 5 µM

Suppose we examine the molecule O=C(c1cnn2cc(N3CCCC3)ccc12)N1CCc2[nH]cnc2C1c1nc2ccccc2s1 (centres unmarked) ; what AC50 value has been reported? 1 to 5 µM

Suppose we examine the molecule O=C(Cc1ncc(-c2ccccc2)s1)N1CCc2[nH]cnc2C1c1nc2ccccc2s1 (centres unmarked) ; what AC50 value has been reported? 1 to 5 µM

Suppose we examine the molecule Cn1cc(-c2cnc(CC(=O)N3CCc4[nH]cnc4C3c3nc4ccccc4s3)s2)cn1 (centres unmarked) ; what AC50 value has been reported? 1 to 5 µM

Suppose we examine the molecule O=C(CCc1ccccc1)N1CCc2[nH]cnc2C1c1nc2ccccc2[nH]1 (centres unmarked) ; what AC50 value has been reported? 1 to 5 µM

Suppose we examine the molecule O=C(c1nc2ccccc2s1)N1CCc2[nH]cnc2C1c1nc2ccc(Cl)cc2[nH]1 (centres unmarked) ; what AC50 value has been reported? > 5 µM

Suppose we examine the molecule CC(C)(O)c1cc(C(=O)N2CCc3[nH]cnc3C2c2nc3ccccc3s2)sn1 (centres unmarked) ; what AC50 value has been reported? > 5 µM

Suppose we examine the molecule O=C(C1CN(c2ccc(Cl)cc2)C1)N1CCc2[nH]cnc2C1c1nc2ccccc2s1 (centres unmarked) ; what AC50 value has been reported? 1 to 5 µM

Suppose we examine the molecule O=C(c1nc2ccccc2s1)N1CCc2[nH]cnc2C1c1nc2ccc(F)cc2[nH]1 (centres unmarked) ; what AC50 value has been reported? 1 to 5 µM

Suppose we examine the molecule Cn1cc(-c2cccc(C(=O)N3CCc4[nH]cnc4[C@H]3c3nc4ccccc4s3)c2)cn1 (single isomer, unassigned) ; what AC50 value has been reported? 1 to 5 µM

Suppose we examine the molecule O=C(C=Cc1ccccc1)N1CCc2[nH]cnc2C1c1nc2ccccc2[nH]1 (centres unmarked) ; what AC50 value has been reported? 1 to 5 µM

Suppose we examine the molecule Cc1nnc(CCC(=O)N2CCc3[nH]cnc3C2c2nc3ccc(Cl)cc3[nH]2)s1 (centres unmarked) ; what AC50 value has been reported? 1 to 5 µM

Suppose we examine the molecule Cc1nnc(N2CC(C(=O)N3CCc4[nH]cnc4[C@H]3c3nc4ccccc4s3)C2)o1 (single isomer, unassigned) ; what AC50 value has been reported? > 5 µM

Suppose we examine the molecule CN(C)Cc1nc(C(=O)N2CCc3[nH]cnc3C2c2nc3ccccc3s2)no1 (centres unmarked) ; what AC50 value has been reported? > 5 µM

Suppose we examine the molecule Cc1ncoc1CC(=O)N1CCc2[nH]cnc2C1c1nc2ccccc2s1 (centres unmarked) ; what AC50 value has been reported? 1 to 5 µM

Suppose we examine the molecule O=C(c1ncco1)N1CCc2[nH]cnc2[C@H]1c1nc2ccccc2[nH]1 ; what AC50 value has been reported? 1 to 5 µM

Suppose we examine the molecule Cc1nnc(CCC(=O)N2CCc3[nH]cnc3C2c2nc3cc(F)ccc3s2)s1 (centres unmarked) ; what AC50 value has been reported? 1 to 5 µM

Suppose we examine the molecule COCCNc1nnc(C(=O)N2CCc3[nH]cnc3[C@@H]2c2nc3ccccc3s2)o1 (single isomer, unassigned) ; what AC50 value has been reported? > 5 µM

Suppose we examine the molecule O=C(c1oc(-c2ccccn2)nc1C1CC1)N1CCCc2[nH]cnc2C1c1nc2ccccc2[nH]1 (centres unmarked) ; what AC50 value has been reported? 1 to 5 µM

Suppose we examine the molecule CC(C)(O)Cn1ncc(C(=O)N2CCc3[nH]cnc3C2c2nc3c(F)cccc3s2)c1Cl (centres unmarked) ; what AC50 value has been reported? 1 to 5 µM

Suppose we examine the molecule O=C(C1CC1F)N1CCc2[nH]cnc2C1c1nc2ccccc2s1 (centres unmarked) ; what AC50 value has been reported? 1 to 5 µM

Suppose we examine the molecule NC(=O)Cn1ncc(C(=O)N2CCc3[nH]cnc3C2c2nc3c(F)cccc3s2)c1C(F)F (centres unmarked) ; what AC50 value has been reported? 1 to 5 µM

Suppose we examine the molecule CC(=O)N1CCc2[nH]cnc2C1c1nc2ccccc2s1 (centres unmarked) ; what AC50 value has been reported? > 5 µM

Suppose we examine the molecule Cn1nc(N)cc1C(=O)N1CCc2[nH]cnc2C1c1nc2c(F)cccc2s1 (centres unmarked) ; what AC50 value has been reported? > 5 µM

Suppose we examine the molecule O=C(CCc1nnc(Br)s1)N1CCc2[nH]cnc2[C@H]1c1nc2ccccc2[nH]1 ; what AC50 value has been reported? 1 to 5 µM

Suppose we examine the molecule CC(C)(O)c1noc(C(=O)N2CCc3[nH]cnc3C2c2nc3c(F)cccc3s2)n1 (centres unmarked) ; what AC50 value has been reported? 1 to 5 µM

Suppose we examine the molecule O=C(c1ncco1)N1CCc2[nH]cnc2C1c1nc2ccc(F)cc2s1 (centres unmarked) ; what AC50 value has been reported? 1 to 5 µM

Suppose we examine the molecule Cn1nc(C(F)F)nc1C(=O)N1CCc2[nH]cnc2C1c1nc2c(F)cccc2s1 (centres unmarked) ; what AC50 value has been reported? 1 to 5 µM

Suppose we examine the molecule Cc1ncc(CC(=O)N2CCc3[nH]cnc3[C@H]2c2nc3ccccc3[nH]2)o1 ; what AC50 value has been reported? > 5 µM

Suppose we examine the molecule Cc1nnc(CC(=O)N2CCc3[nH]cnc3C2c2nc3ccccc3s2)s1 (centres unmarked) ; what AC50 value has been reported? > 5 µM

Suppose we examine the molecule O=C(c1cnco1)N1CC2(CC2)c2[nH]cnc2C1c1nc2ccccc2s1 (centres unmarked) ; what AC50 value has been reported? > 5 µM

Suppose we examine the molecule O=C(c1nnc(C2CNC2)o1)N1CCc2[nH]cnc2C1c1nc2ccccc2s1 (centres unmarked) ; what AC50 value has been reported? > 5 µM

Suppose we examine the molecule O=C(c1ccn(-c2ccccn2)n1)N1CCc2[nH]cnc2C1c1nc2c(F)cccc2s1 (centres unmarked) ; what AC50 value has been reported? > 5 µM

Suppose we examine the molecule CC1(C)CN(C(=O)c2cnco2)C(c2nc3c(F)cccc3s2)c2nc[nH]c21 (centres unmarked) ; what AC50 value has been reported? > 5 µM

Suppose we examine the molecule O=C(c1oc(C2CCN2)nc1C(F)F)N1CCc2[nH]cnc2C1c1nc2c(F)cccc2s1 (centres unmarked) ; what AC50 value has been reported? 1 to 5 µM

Suppose we examine the molecule O=C(c1cc2ccccn2n1)N1CCc2[nH]cnc2[C@H]1c1nc2ccccc2[nH]1 ; what AC50 value has been reported? > 5 µM

----------
- assayed-target: human PAH with the R408W mutation (Homo sapiens, UniProt P00439, R408W)
- Construct: expressed in transfected cells
- assay-remarks: Cell Based Phenylalanine Flux Assay
- study-conditions: A375 cells expressing human R408W PAH; 24 hrs compound incubation; 13C-Tyrosine by LC-MS; average where tested multiple times; read-out: AC50
measurement-name: AC50

Suppose we examine the molecule O=C(C1CN(c2ncccc2F)C1)N1CCc2[nH]cnc2[C@H]1c1nc2ccccc2s1 ; what AC50 value has been reported? 500 to 1000 nM

Suppose we examine the molecule O=C(CCc1nccs1)N1CCc2[nH]cnc2[C@H]1c1nc2ccc(Cl)cc2[nH]1 ; what AC50 value has been reported? 500 to 1000 nM

Suppose we examine the molecule O=C(c1cnn2c(Br)cccc12)N1CCc2[nH]cnc2[C@H]1c1nc2ccccc2s1 ; what AC50 value has been reported? 500 to 1000 nM

Suppose we examine the molecule O=C(c1ncn2ccccc12)N1CCc2[nH]cnc2[C@@H]1c1nc2cc(F)ccc2s1 [Example 1106] ; what AC50 value has been reported? 1000 to 5000 nM

Suppose we examine the molecule O=C(c1nnc(-c2cc[nH]n2)o1)N1CCc2[nH]cnc2[C@@H]1c1nc2ccccc2s1 ; what AC50 value has been reported? 1000 to 5000 nM

Suppose we examine the molecule O=C(c1nncs1)N1CCc2[nH]cnc2[C@@H]1c1nc2c(F)cccc2s1 ; what AC50 value has been reported? 1000 to 5000 nM

Suppose we examine the molecule O=C(c1nnc(-c2ccccn2)o1)N1CCc2[nH]cnc2[C@H]1c1nc2ccccc2s1 ; what AC50 value has been reported? < 500 nM

Suppose we examine the molecule N#Cc1ncoc1C(=O)N1CCc2[nH]cnc2[C@H]1c1nc2c(F)cccc2s1 ; what AC50 value has been reported? 500 to 1000 nM

Suppose we examine the molecule Cc1nc(C2CC2)oc1C(=O)N1CCc2[nH]cnc2[C@H]1c1nc2c(F)cccc2s1 ; what AC50 value has been reported? < 500 nM

Suppose we examine the molecule O=C(c1nc2c(F)cccc2s1)N1CCc2[nH]cnc2[C@H]1c1nc2ccccc2s1 ; what AC50 value has been reported? 500 to 1000 nM

Suppose we examine the molecule O=C(c1oc(CCN2CC(F)C2)nc1C(F)(F)F)N1CCc2[nH]cnc2[C@@H]1c1nc2c(F)cccc2s1 ; what AC50 value has been reported? < 500 nM

Suppose we examine the molecule O=C(c1cnc(-c2c(F)cccc2F)s1)N1CCc2[nH]cnc2[C@@H]1c1nc2ccccc2s1 ; what AC50 value has been reported? < 500 nM

Suppose we examine the molecule CN(C)Cc1nc(C(F)F)c(C(=O)N2CCc3[nH]cnc3[C@H]2c2nc3ccccc3s2)o1 ; what AC50 value has been reported? < 500 nM

Suppose we examine the molecule O=C(c1cnn(-c2ccccn2)c1Cl)N1CCc2[nH]cnc2[C@@H]1c1nc2ccccc2s1 ; what AC50 value has been reported? 1000 to 5000 nM

Suppose we examine the molecule O=C(c1oc(C2(O)CCC2)nc1C(F)(F)F)N1CCc2[nH]cnc2[C@H]1c1nc2ccccc2s1 ; what AC50 value has been reported? < 500 nM

Suppose we examine the molecule Cc1nnc(C(=O)N2CCc3[nH]cnc3[C@H]2c2nc3c(F)cccc3s2)o1 ; what AC50 value has been reported? 500 to 1000 nM
